Attribution: PubChem BioAssay (NCI)

test system: UACC-257 melanoma; assay: NCI tumour cell line growth inhibition, 48 h
Experimental Readout: TGI (µM)
Hi! Could you send only the number? It should be in µM, unit omitted.

Reported TGI of CC1=C(CN(O)C(N)=O)C2=C(C)C3(CC3)[C@@](C)(O)C(=O)C2=C1 : 0.765

Reported TGI of COc1cccc(N2CCN(c3ncnc4c3[nH]c3ccc(F)cc34)C[C@@H]2C)c1 : 3.62

Reported TGI of O=C(NNc1nc2cc(F)ccc2n2cccc12)c1ccncn1 : 8.25
